Data origin: patent US12077503B2

System: giant foxtail (Setaria faberi)
procedure_text: Test G Post-Emergence Protocol
Assay type: in vivo
condition_description: Setaria faberi, post-emergence, 312 h, 15.625 g ai/ha, evaluated after 13 days (100=total damage to plant; 0=no damage to plant), read-out: Foxtail, Giant damage rating
assay_readout: pest or weed control at 15.625 g/ha (%)

1. CN1C[C@@H](c2ccc(C(F)(F)F)cc2)[C@H](C(=O)Nc2cccc3c2CCC3)C1=O (racemic) ... 10
2. Cc1cc(NC(=O)[C@@H]2C(=O)N(C)C[C@H]2c2ccc(C(F)(F)F)cc2)[nH]n1 (racemic) ... 0
3. C=CCc1c(Cl)cccc1NC(=O)[C@H]1C(=O)N(C)C[C@@H]1c1ccc(C(F)(F)F)cc1 (racemic) ... 0
4. CN1C[C@H](c2ccc(C(F)(F)F)cc2)[C@@H](C(=O)Nc2cnccc2O)C1=O (racemic) ... 0
